- systemUnderTest: Cav1.2/β3/α2δ (Homo sapiens, UniProt Q13936)
- Construct: expressed in transfected cells; host or cells: Xenopus laevis oocytes (cRNA injection, Cav1.2:β3:α2δ 2:1:1 by weight)
- Sequence (Q13936 1-2138 isoform Q13936-20): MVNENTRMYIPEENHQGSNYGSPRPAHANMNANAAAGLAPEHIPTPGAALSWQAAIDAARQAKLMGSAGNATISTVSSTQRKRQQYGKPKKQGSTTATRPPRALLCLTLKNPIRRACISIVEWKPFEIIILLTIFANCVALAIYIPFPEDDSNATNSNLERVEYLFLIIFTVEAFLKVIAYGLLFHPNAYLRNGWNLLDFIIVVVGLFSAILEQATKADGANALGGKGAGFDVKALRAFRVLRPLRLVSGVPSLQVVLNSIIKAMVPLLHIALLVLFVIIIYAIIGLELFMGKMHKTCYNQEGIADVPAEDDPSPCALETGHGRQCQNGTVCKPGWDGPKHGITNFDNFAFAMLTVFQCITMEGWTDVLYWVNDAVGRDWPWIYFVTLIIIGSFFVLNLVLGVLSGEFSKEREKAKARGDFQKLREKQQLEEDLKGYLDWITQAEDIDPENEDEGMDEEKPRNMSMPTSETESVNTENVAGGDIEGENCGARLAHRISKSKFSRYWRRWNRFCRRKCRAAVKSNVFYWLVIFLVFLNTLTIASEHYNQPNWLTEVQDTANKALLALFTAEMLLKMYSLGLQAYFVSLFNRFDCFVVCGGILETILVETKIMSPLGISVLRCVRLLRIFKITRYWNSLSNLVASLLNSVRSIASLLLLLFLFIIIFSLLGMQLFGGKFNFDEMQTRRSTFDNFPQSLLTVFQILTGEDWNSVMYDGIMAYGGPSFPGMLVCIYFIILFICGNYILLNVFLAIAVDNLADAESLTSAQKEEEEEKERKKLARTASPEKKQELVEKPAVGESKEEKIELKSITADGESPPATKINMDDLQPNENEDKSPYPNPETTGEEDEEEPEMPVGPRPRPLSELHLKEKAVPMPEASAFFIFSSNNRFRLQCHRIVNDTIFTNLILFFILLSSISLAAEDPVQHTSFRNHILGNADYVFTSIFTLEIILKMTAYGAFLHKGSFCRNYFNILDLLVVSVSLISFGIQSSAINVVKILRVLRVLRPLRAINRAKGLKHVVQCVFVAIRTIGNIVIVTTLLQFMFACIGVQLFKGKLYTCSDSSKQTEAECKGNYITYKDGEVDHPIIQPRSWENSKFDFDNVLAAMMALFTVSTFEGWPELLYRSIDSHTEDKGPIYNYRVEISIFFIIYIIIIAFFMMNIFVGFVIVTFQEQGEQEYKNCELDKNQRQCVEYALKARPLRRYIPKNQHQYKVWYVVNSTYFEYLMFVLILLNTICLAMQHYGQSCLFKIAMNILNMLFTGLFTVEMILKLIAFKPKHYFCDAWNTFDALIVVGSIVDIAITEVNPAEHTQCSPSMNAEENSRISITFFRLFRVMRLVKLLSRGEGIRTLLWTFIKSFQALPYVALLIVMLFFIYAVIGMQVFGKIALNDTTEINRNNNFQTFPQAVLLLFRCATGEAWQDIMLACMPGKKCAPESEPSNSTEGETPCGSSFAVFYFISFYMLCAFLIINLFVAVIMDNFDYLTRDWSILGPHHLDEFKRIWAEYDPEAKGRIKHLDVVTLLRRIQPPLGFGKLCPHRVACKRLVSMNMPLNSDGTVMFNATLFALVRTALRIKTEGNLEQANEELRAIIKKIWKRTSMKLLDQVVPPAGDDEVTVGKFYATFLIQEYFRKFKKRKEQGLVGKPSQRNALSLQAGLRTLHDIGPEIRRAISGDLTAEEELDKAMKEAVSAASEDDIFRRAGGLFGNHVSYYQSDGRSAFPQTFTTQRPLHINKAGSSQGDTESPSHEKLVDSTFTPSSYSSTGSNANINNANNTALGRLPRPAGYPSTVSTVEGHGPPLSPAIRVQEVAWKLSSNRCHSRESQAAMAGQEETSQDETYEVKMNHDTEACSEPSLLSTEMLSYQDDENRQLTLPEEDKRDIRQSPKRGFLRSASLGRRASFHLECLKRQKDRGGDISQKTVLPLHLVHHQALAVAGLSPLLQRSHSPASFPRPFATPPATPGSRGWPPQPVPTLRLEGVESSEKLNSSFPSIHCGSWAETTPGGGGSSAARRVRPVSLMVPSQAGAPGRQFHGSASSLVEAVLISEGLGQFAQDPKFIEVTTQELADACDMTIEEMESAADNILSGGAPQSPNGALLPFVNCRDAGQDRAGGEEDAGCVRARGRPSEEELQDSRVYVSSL
- Sequence (P54286 whole entry partner): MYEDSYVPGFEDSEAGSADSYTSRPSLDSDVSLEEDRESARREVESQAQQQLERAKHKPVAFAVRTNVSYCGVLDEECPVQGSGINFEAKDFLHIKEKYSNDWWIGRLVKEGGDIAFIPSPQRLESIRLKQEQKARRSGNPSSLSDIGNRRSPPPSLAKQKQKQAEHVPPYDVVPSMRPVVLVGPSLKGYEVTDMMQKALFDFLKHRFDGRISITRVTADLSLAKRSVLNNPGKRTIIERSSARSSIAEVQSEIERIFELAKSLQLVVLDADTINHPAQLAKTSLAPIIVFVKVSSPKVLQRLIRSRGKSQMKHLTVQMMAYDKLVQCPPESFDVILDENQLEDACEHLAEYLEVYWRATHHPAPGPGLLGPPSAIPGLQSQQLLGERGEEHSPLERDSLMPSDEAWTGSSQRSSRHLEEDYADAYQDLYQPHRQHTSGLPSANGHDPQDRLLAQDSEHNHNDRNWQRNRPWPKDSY
- Sequence (P13806 27-960 partner): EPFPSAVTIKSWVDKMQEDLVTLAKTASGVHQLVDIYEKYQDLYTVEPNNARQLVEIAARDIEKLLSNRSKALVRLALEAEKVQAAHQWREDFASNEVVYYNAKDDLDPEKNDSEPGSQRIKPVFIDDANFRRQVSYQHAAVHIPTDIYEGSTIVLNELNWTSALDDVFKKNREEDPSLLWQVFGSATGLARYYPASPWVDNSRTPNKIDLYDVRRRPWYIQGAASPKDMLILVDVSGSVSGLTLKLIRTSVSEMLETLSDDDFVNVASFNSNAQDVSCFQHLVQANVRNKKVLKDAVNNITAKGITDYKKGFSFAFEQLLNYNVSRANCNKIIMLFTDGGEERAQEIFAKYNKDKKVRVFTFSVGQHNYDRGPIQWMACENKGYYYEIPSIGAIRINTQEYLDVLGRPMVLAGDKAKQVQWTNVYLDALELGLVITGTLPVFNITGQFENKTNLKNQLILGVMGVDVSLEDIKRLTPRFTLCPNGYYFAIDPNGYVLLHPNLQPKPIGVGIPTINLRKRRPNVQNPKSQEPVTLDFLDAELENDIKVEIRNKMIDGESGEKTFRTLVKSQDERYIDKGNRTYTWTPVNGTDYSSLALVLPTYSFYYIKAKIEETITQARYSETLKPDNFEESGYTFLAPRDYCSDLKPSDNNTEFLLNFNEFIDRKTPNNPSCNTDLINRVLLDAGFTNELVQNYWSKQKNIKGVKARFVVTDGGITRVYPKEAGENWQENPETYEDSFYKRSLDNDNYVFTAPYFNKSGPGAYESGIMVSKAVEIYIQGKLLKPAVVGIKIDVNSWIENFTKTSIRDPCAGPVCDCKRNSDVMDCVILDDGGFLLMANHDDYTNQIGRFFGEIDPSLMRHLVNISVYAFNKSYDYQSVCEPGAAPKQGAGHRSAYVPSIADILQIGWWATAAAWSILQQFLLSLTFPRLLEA
- Sequence (P13806 961-1106 partner): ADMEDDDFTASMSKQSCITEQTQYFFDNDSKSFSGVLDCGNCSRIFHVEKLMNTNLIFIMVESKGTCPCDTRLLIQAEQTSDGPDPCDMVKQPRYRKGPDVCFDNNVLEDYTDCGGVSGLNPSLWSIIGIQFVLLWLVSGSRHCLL
- methodNotes: Two-electrode voltage clamp of Cav1.2/β3/α2δ expressed in Xenopus oocytes (Ba2+ as charge carrier)
- Assay type: cell-based
- details: 20 μM; relative current at 0 mV
Measured ICa I/I0 of individual entries

Record excerpt, results attached:
CC/C=C\C/C=C\C/C=C\C/C=C\C/C=C\C/C=C\CCC(=O)NCC(=O)O [DHA-glycine, docosahexaenoyl glycine] :: 0.9 ± 0.1
CC/C=C\C/C=C\C/C=C\C/C=C\C/C=C\C/C=C\CCC(=O)NCCS(=O)(=O)O [DHA-taurine] :: 0.7 ± 0.1
CCCCC/C=C\C/C=C\CC/C=C\CCCC(=O)NCC(=O)O [Pin-glycine] :: 0.6 ± 0.2
CCCCC/C=C\C/C=C\CCCCCCCC(=O)NCCS(=O)(=O)O [Lin-taurine, Linoleoyl taurine] :: 0.5 ± 0.1
CCCCC/C=C\C/C=C\CCCCCCCC(=O)NCC(=O)O [Lin-glycine] :: 0.7 ± 0.1
CCCCC/C=C\C/C=C\CC/C=C\CCCC(=O)NCCS(=O)(=O)O [Pin-taurine] :: 0.5 ± 0.1

Consider the compound CCCCC/C=C\C/C=C\C/C=C\C/C=C\CCCC(=O)NCCS(=O)(=O)O [N-AT, N-arachidonoyl taurine] and give its measured ICa I/I0.
0.7 ± 0.1

====

Measured IKs I/I0 of individual entries
- systemUnderTest: Kv7.1/KCNE1 (Homo sapiens, UniProt P51787)
- Construct: cRNA encoding Kv7.1 (UniProt: P51787), KCNE1 (UniProt: P15382.1); expressed in transfected cells; host or cells: Xenopus laevis oocytes (cRNA injection, Kv7.1:KCNE1 3:1 by weight)
- methodNotes: Two-electrode voltage clamp of Kv7.1/KCNE1 expressed in Xenopus oocytes
- Assay type: cell-based
- details: 0.2 μM; relative current at 0 mV
In your answer, state the number alone without any accompanying words.

CCCCC/C=C\C/C=C\C/C=C\C/C=C\CCCC(=O)NCCS(=O)(=O)O :: 1.0
CC/C=C\C/C=C\C/C=C\C/C=C\C/C=C\C/C=C\CCC(=O)NCCS(=O)(=O)O :: 1.1
CCCCC/C=C\C/C=C\CC/C=C\CCCC(=O)NCCS(=O)(=O)O :: 1.1
CCCCC/C=C\C/C=C\CCCCCCCC(=O)NCCS(=O)(=O)O :: 1.0
CC/C=C\C/C=C\C/C=C\C/C=C\C/C=C\C/C=C\CCC(=O)NCC(=O)O :: 1.3

Consider the compound CCCCC/C=C\C/C=C\CCCCCCCC(=O)NCC(=O)O and give its measured IKs I/I0.
1.2

Consider the compound CCCCC/C=C\C/C=C\CC/C=C\CCCC(=O)NCC(=O)O and give its measured IKs I/I0.
0.7

====

- systemUnderTest: Kv7.1/KCNE1 (Homo sapiens, UniProt P51787)
- Construct: cRNA encoding Kv7.1 (UniProt: P51787), KCNE1 (UniProt: P15382.1); expressed in transfected cells; host or cells: Xenopus laevis oocytes (cRNA injection, Kv7.1:KCNE1 3:1 by weight)
- methodNotes: Two-electrode voltage clamp of Kv7.1/KCNE1 expressed in Xenopus oocytes
- Assay type: cell-based
- details: 20 μM
Please mark t if the recorded Gmax/Gmax0 is equal to or greater than 2, and f if it falls below.

Reference set, count: 4
CCCCC/C=C\C/C=C\CC/C=C\CCCC(=O)NCCS(=O)(=O)O :: f
CC/C=C\C/C=C\C/C=C\C/C=C\C/C=C\C/C=C\CCC(=O)NCCS(=O)(=O)O :: f
CCCCC/C=C\C/C=C\CC/C=C\CCCC(=O)NCC(=O)O :: f
CCCCC/C=C\C/C=C\C/C=C\C/C=C\CCCC(=O)NCCS(=O)(=O)O :: f

As a next step, examine the compound that follows.
Say whether CCCCC/C=C\C/C=C\CCCCCCCC(=O)NCC(=O)O shows Gmax/Gmax0 of 2 or more.
t

Attribution: paper PMC7159882
